measurement notes: Calcium (Ca^2+) binding assay: fluorescence/absorbance titration of purified protein
stated conditions: EGFP and mApple variants
measured endpoint: Fmax/Fmin
Answer field: number only, no words.

{"molecule": "R-CatchER: red genetically encoded Ca^2+ indicator, mApple A145E/K198D/R216D, SEQ ID NO: 12 (protein) EENNMAIIKEFMRFKVHMEGSVNGHEFEIEGEGEGRPYEAFQTAKLKVTKGGPLPFAWDILSPQFMYGSKVYIKHPADIPDYFKLSFPEGFRWERVMNFEDGGIIHVNQDSSLQDGVFIYKVKLRGTNFPSDGPVMQKKTMGWEESEERMYPEDGALKSEIKKRLKLKDGGHYAAEVKTTYKAKKPVQLPGAYIVDIDLDIVSHNEDYTIVEQYEDAEGRHSTGGMDELYK", "experimental result": 4.22}
{"molecule": "mApple A145E/K198D/R216E: mApple variant, SEQ ID NO: 25; starting point of mitochondria indicator (protein) EENNMAIIKEFMRFKVHMEGSVNGHEFEIEGEGEGRPYEAFQTAKLKVTKGGPLPFAWDILSPQFMYGSKVYIKHPADIPDYFKLSFPEGFRWERVMNFEDGGIIHVNQDSSLQDGVFIYKVKLRGTNFPSDGPVMQKKTMGWEESEERMYPEDGALKSEIKKRLKLKDGGHYAAEVKTTYKAKKPVQLPGAYIVDIDLDIVSHNEDYTIVEQYEEAEGRHSTGGMDELYK", "experimental result": 3.80}
{"molecule": "mApple A145E/K198D/R216E/E218D: mApple variant, SEQ ID NO: 29 (protein) EENNMAIIKEFMRFKVHMEGSVNGHEFEIEGEGEGRPYEAFQTAKLKVTKGGPLPFAWDILSPQFMYGSKVYIKHPADIPDYFKLSFPEGFRWERVMNFEDGGIIHVNQDSSLQDGVFIYKVKLRGTNFPSDGPVMQKKTMGWEESEERMYPEDGALKSEIKKRLKLKDGGHYAAEVKTTYKAKKPVQLPGAYIVDIDLDIVSHNEDYTIVEQYEEADGRHSTGGMDELYK", "experimental result": 2.64}
{"molecule": "mApple A145E/E147D/K198D/R216E: mApple variant, SEQ ID NO: 27 (protein) EENNMAIIKEFMRFKVHMEGSVNGHEFEIEGEGEGRPYEAFQTAKLKVTKGGPLPFAWDILSPQFMYGSKVYIKHPADIPDYFKLSFPEGFRWERVMNFEDGGIIHVNQDSSLQDGVFIYKVKLRGTNFPSDGPVMQKKTMGWEESDERMYPEDGALKSEIKKRLKLKDGGHYAAEVKTTYKAKKPVQLPGAYIVDIDLDIVSHNEDYTIVEQYEEAEGRHSTGGMDELYK", "experimental result": 4.43}

API: the following record is the query input.
Prompt: Consider the molecule mApple A145D/K198D/R216E: mApple variant, SEQ ID NO: 26 (protein) EENNMAIIKEFMRFKVHMEGSVNGHEFEIEGEGEGRPYEAFQTAKLKVTKGGPLPFAWDILSPQFMYGSKVYIKHPADIPDYFKLSFPEGFRWERVMNFEDGGIIHVNQDSSLQDGVFIYKVKLRGTNFPSDGPVMQKKTMGWEDSEERMYPEDGALKSEIKKRLKLKDGGHYAAEVKTTYKAKKPVQLPGAYIVDIDLDIVSHNEDYTIVEQYEEAEGRHSTGGMDELYK and give its measured Fmax/Fmin.
Completion: 3.75
